Cited source for all entries: patent US5945440A

# Tested system: MLC kinase (myosin light-chain kinase) (Gallus gallus, UniProt P11799)
# Construct: MLC kinase was purified from chicken stomach; from tissue; host or cells: chicken stomach (gizzard smooth muscle)
# Sequence (P11799 935-1906): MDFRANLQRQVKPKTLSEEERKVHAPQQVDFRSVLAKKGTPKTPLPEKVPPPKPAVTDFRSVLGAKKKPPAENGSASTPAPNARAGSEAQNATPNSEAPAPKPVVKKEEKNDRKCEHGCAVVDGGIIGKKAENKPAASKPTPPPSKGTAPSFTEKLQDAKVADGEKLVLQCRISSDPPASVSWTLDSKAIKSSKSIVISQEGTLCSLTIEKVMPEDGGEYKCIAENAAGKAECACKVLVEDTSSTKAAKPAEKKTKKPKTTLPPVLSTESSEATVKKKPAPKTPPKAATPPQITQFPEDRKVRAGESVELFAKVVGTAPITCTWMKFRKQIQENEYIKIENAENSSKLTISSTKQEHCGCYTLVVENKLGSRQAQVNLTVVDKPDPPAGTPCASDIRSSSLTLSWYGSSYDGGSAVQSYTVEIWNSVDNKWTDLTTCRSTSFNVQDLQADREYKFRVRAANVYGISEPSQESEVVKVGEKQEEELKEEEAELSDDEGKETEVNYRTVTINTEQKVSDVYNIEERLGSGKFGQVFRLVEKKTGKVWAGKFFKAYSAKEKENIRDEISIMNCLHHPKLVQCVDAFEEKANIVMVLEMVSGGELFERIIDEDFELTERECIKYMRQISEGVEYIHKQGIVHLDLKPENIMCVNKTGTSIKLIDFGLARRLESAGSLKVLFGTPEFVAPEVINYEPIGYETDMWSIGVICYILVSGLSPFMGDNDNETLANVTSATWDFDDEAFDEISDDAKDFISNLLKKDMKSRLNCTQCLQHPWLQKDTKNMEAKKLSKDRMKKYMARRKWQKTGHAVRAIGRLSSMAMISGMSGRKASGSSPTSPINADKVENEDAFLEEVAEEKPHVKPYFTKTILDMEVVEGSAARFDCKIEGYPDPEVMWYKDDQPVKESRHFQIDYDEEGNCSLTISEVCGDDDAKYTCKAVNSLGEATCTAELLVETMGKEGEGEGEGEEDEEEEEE
# Test method notes: inhibition of MLC kinase, in vitro enzyme test (32P phosphate incorporation)
# Assay type: biochemical, chicken (stomach)
# Condition info: selectivity factor calculated from the IC50 values

Compound	Modifier	ratio of IC50 C-kinase/IC50 MLC-kinase
COc1ccc2c(c1)c1c3c(c4c5cc(OC)c(OC)cc5n(CCC#N)c4c1n2C)C(=O)NC3=O	=	0.7
CC(CC#N)n1c2ccccc2c2c3c(c4c5ccccc5n(C)c4c21)C(=O)NC3=O (stereo not drawn)	=	0.6
Cn1c2ccc(O)cc2c2c3c(c4c5ccccc5n(CCC#N)c4c21)C(=O)NC3=O	=	1.7
O=C1NC(=O)c2c1c1c3ccccc3[nH]c1c1[nH]c3ccccc3c21 [Example 11a]	=	4.5
CN(C)CCn1c2ccccc2c2c3c(c4c5ccccc5n(C)c4c21)C(=O)NC3=O	=	7.2
CC(C)N(CCCn1c2ccccc2c2c3c(c4c5ccccc5[nH]c4c21)C(=O)NC3=O)C(C)C	=	0.4
COc1cc2c3c4c(c5c6ccccc6n(C)c5c3n(CCC#N)c2cc1OC)C(=O)NC4=O	=	0.4
Cn1c2ccccc2c2c3c(c4c5ccccc5n(CCCN=[N+]=[N-])c4c21)C(=O)NC3=O	=	0.4
O=C1NC(=O)c2c1c1c3ccccc3[nH]c1c1c2c2ccccc2n1CC(O)CO (stereo not drawn)	=	11.3
Cn1c2ccccc2c2c3c(c4c5ccccc5[nH]c4c21)C(=O)NC3=O	>	435
Cn1c2ccccc2c2c3c(c4c5ccccc5n(CCC#N)c4c21)C(=O)NC3=O	=	0.7
Cn1c2ccccc2c2c3c(c4c5ccccc5n(CCC[N+](C)(C)C)c4c21)C(=O)NC3=O	=	2.5
COc1ccc2c3c4c(c5c6ccccc6n(C)c5c3n(CCC#N)c2c1)C(=O)NC4=O	=	8.7
Cn1c2ccc(O)cc2c2c3c(c4c5cc(O)ccc5n(CCC#N)c4c21)C(=O)NC3=O	=	0.4
O=C1NC(=O)c2c1c1c3ccccc3[nH]c1c1[nH]c3cc(Cl)ccc3c21 [Example 11c]	=	47
CN(C)CCCn1c2ccc(O)cc2c2c3c(c4c5cc(O)ccc5[nH]c4c21)C(=O)NC3=O	=	2.3
Cn1c2ccccc2c2c3c(c4c5cc(O)c(O)cc5n(CCC#N)c4c21)C(=O)NC3=O	=	7.2
COc1ccc2c(c1)c1c3c(c4c5ccccc5n(C)c4c1n2CCCN(C)C)C(=O)NC3=O	=	7.2
COc1ccc2c(c1)c1c3c(c4c5ccccc5n(C)c4c1n2CCCN)C(=O)NC3=O	=	74
Cn1c2ccccc2c2c3c(c4c5ccccc5n(CCCN)c4c21)C(=O)NC3=O	=	33
CCN(CC)CC(O)Cn1c2ccccc2c2c3c(c4c5ccccc5n(C)c4c21)C(=O)NC3=O (racemic) [Example 10a]	=	0.3
COc1ccc2[nH]c3c(c4c(c5c6cc(OC)ccc6n(CCCN(C)C)c35)C(=O)NC4=O)c2c1	=	9.5
Cn1c2ccccc2c2c3c(c4c5ccccc5n(CC#N)c4c21)C(=O)NC3=O	=	0.8
CN(C)CCCn1c2ccccc2c2c3c(c4c5ccccc5n(C)c4c21)C(=O)NC3=O	=	11.1
O=C1NC(=O)c2c1c1c3cc(O)ccc3[nH]c1c1[nH]c3ccc(O)cc3c21	=	1.3
COc1ccc2[nH]c3c(c4c(c5c6ccccc6n(C)c35)C(=O)NC4=O)c2c1	=	3.0
CC(C)NCCCn1c2ccccc2c2c3c(c4c5ccccc5n(C)c4c21)C(=O)NC3=O	=	2.5
COc1ccc2c(c1)c1c3c(c4c5ccccc5n(CCC#N)c4c1n2C)C(=O)NC3=O	=	0.7
COc1ccc2c(c1)c1c3c(c4c5cc(OC)ccc5n(CCCC#N)c4c1n2C)C(=O)NC3=O	=	0.6
Cn1c2ccccc2c2c3c(c4c5cc(O)ccc5n(CCC#N)c4c21)C(=O)NC3=O	=	1.3
COc1ccc2c(c1)c1c3c(c4c5cc(OC)ccc5n(CCC#N)c4c1n2C)C(=O)NC3=O	=	0.1
COc1ccc2c(c1)c1c3c(c4c5ccccc5n(CCCC#N)c4c1n2C)C(=O)NC3=O	=	1
COc1ccc2c(c1)c1c3c(c4c5cc(Cl)ccc5n(CCC#N)c4c1n2C)C(=O)NC3=O	=	0.6

---

# System: human tumour cells, ovarian 1
# Test method notes: colony formation of human tumour cells: ovarian 1
# Assay type: cell-based

Compound	IC50 [nM]
CN(C)CCCn1c2ccc(O)cc2c2c3c(c4c5cc(O)ccc5[nH]c4c21)C(=O)NC3=O [Example 2c]	200

---

# Tested system: protein kinase C
# Test method notes: inhibition of protein kinase C, enzyme test
# Condition info: read-out: inhibition of the protein kinases, C-kinase IC50

Compound	Modifier	IC50 (nM)
CC(CC#N)n1c2ccccc2c2c3c(c4c5ccccc5n(C)c4c21)C(=O)NC3=O (stereo not drawn)	=	35
CN(C)CC(O)Cn1c2ccccc2c2c3c(c4c5ccccc5n(C)c4c21)C(=O)NC3=O (racemic)	=	21
Cn1c2ccccc2c2c3c(c4c5ccccc5n(CCC[N+](C)(C)C)c4c21)C(=O)NC3=O	=	190
COc1ccc2c(c1)c1c3c(c4c5ccccc5n(C)c4c1n2CCCC#N)C(=O)NC3=O	=	4.7
COc1ccc2c(c1)c1c3c(c4c5ccccc5n(CCCN(C)C)c4c1n2C)C(=O)NC3=O	=	31
CN(C)CCCn1c2ccccc2c2c3c(c4c5ccccc5[nH]c4c21)C(=O)NC3=O	=	530
COc1ccc2c(c1)c1c3c(c4c5cc(OC)ccc5n(CCC#N)c4c1n2C)C(=O)NC3=O	=	19
CN(C)CCn1c2ccccc2c2c3c(c4c5ccccc5n(C)c4c21)C(=O)NC3=O	=	52
COc1ccc2c(c1)c1c3c(c4c5ccccc5n(C)c4c1n2CCC#N)C(=O)NC3=O	=	1.5
CCN(CC)CC(O)Cn1c2ccccc2c2c3c(c4c5ccccc5[nH]c4c21)C(=O)NC3=O (racemic)	=	500
CN(C)CCCn1c2ccc(O)cc2c2c3c(c4c5cc(O)ccc5[nH]c4c21)C(=O)NC3=O	=	14
O=C1NC(=O)c2c1c1c3ccccc3[nH]c1c1[nH]c3ccccc3c21 [Example 11a]	=	1900
Cn1c2ccccc2c2c3c(c4c5cc(O)c(O)cc5n(CCC#N)c4c21)C(=O)NC3=O	=	230
COc1ccc2c(c1)c1c3c(c4c5cc(OC)ccc5n(CCCC#N)c4c1n2C)C(=O)NC3=O	=	17
COc1ccc2c(c1)c1c3c(c4c5ccccc5n(C)c4c1n2CCCN)C(=O)NC3=O	=	360
NC(=O)CCn1c2ccccc2c2c3c(c4c5ccccc5[nH]c4c21)C(=O)NC3=O	=	87
Cn1c2ccccc2c2c3c(c4c5ccccc5n(CCCN)c4c21)C(=O)NC3=O	=	39
COc1ccc2[nH]c3c4[nH]c5ccc(OC)cc5c4c4c(c3c2c1)C(=O)NC4=O [Example 11d]	>	10000

---

Listing: ratio of IC50 C-kinase/IC50 MLC-kinase of selected compounds
# Tested system: MLC kinase (myosin light-chain kinase) (Gallus gallus, UniProt P11799)
# Construct: MLC kinase was purified from chicken stomach; from tissue; host or cells: chicken stomach (gizzard smooth muscle)
# Test method notes: inhibition of MLC kinase, in vitro enzyme test (32P phosphate incorporation)
# Type: biochemical, chicken (stomach)
# Condition info: selectivity factor calculated from the IC50 values
Recorded endpoint: ratio of IC50 C-kinase/IC50 MLC-kinase

Compound	Tested system	Modifier	Endpoint result
COc1ccc2c(c1)c1c3c(c4c5cc(Cl)ccc5n(CCCN)c4c1n2C)C(=O)NC3=O	MLC kinase (myosin light-chain kinase) (Gallus gallus, UniProt P11799)	=	23
COc1ccc2c(c1)c1c3c(c4c5ccccc5n(C)c4c1n2CC(O)CN(C)C)C(=O)NC3=O (racemic) [Example 10b]	MLC kinase (myosin light-chain kinase) (Gallus gallus, UniProt P11799)	=	0.033
COc1ccc2c(c1)c1c3c(c4c5ccccc5n(C)c4c1n2CCCC#N)C(=O)NC3=O	MLC kinase (myosin light-chain kinase) (Gallus gallus, UniProt P11799)	=	0.15
COc1cc2c3c4c(c5c6ccccc6n(C)c5c3n(CCCN(C)C)c2cc1OC)C(=O)NC4=O	MLC kinase (myosin light-chain kinase) (Gallus gallus, UniProt P11799)	=	1.3
Cc1ccc2[nH]c3c4[nH]c5ccc(C)cc5c4c4c(c3c2c1)C(=O)NC4=O [Example 11e]	MLC kinase (myosin light-chain kinase) (Gallus gallus, UniProt P11799)	>	17
CN(C)CCCn1c2ccccc2c2c3c(c4c5ccccc5[nH]c4c21)C(=O)NC3=O	MLC kinase (myosin light-chain kinase) (Gallus gallus, UniProt P11799)	=	10
CN(C)CCCn1c2ccc(O)cc2c2c3c(c4c5ccccc5n(C)c4c21)C(=O)NC3=O	MLC kinase (myosin light-chain kinase) (Gallus gallus, UniProt P11799)	=	8
O=C1NC(=O)c2c1c1c3cc(Br)ccc3[nH]c1c1[nH]c3ccc(Br)cc3c21 [Example 11g]	MLC kinase (myosin light-chain kinase) (Gallus gallus, UniProt P11799)	=	12
